target_or_system: human ERK-2 (Mitogen Activated Kinase 1) (Homo sapiens)
Construct: N-terminal 6-His fusion protein in E. coli and corresponding to aa 8-360; 6-His (N); made in house; host or cells: E. coli
assay_notes: ERK-2 Enzymatic Assay
Assay type: biochemical
details: TABLE I; 5nM ERK-2 enzyme, 25µM ATP, S/T17 peptide substrate; single assay or mean of multiple assays
pIC50: −log10 of the molar value.
assay_readout: pIC50

compound="COc1ccc([C@H](NC(=O)c2ccc3cnc(NC4CCOCC4)nc3c2)c2cnn(C)c2)cc1F [Compound I-32]" assay_readout=pIC50 number=8.96
compound="CC(C)Nc1ncc2ccc(C(=O)N[C@H](c3ccc(C(F)(F)F)c(F)c3)[C@@H]3CCCN3)cc2n1 (stereo in doubt) [Compound I-5]" assay_readout=pIC50 number=8.64
compound="Cn1cc([C@@H](NC(=O)c2ccc3cnc(NC4CCOCC4)nc3c2)c2ccc(C#N)c(Cl)c2)cn1 (stereo in doubt) [Compound I-50]" assay_readout=pIC50 number=7.60
compound="COc1ccc([C@H](NC(=O)c2ccc3cnc(N[C@H]4CCO[C@H](COC(C)=O)C4)nc3c2)c2cnn(C)c2)cc1F [Compound I-57]" assay_readout=pIC50 number=7.62
compound="O=C(N[C@H](c1ccc(F)c(Cl)c1)[C@@]1(F)CCNC1)c1ccc2cnc(NC3CCOCC3)nc2c1 [Compound I-37]" assay_readout=pIC50 number=7.13
compound="COc1ccc(C(NC(=O)c2ccc3cnc(NC4CCOCC4)nc3c2)c2cnn(CCO)c2)cc1F (centres unmarked) [Compound I-67]" assay_readout=pIC50 number=8.30
compound="O=C(N[C@H](c1ccc(F)c(Cl)c1)[C@]1(F)CCNC1)c1ccc2cnc(NC3CCOCC3)nc2c1 [Compound I-38]" assay_readout=pIC50 number=7.18
compound="COCCNc1ncc2c(F)cc(C(=O)N[C@@H](c3ccc(OC)c(F)c3)c3cnn(C)c3)cc2n1 [Compound I-58]" assay_readout=pIC50 number=7.70
compound="Cn1cc([C@H](NC(=O)c2ccc3cnc(NC4CCOCC4)nc3c2)c2ccc(C#N)c(Cl)c2)cn1 (stereo in doubt) [Compound I-48]" assay_readout=pIC50 number=8.96
compound="COc1ccc([C@H](NC(=O)c2ccc3cnc(NC4CCOCC4)nc3c2)[C@H]2C[C@H](F)CN2)cc1F [Compound I-31]" assay_readout=pIC50 number=8.77
compound="O=C(N[C@H](c1ccc(F)c(Cl)c1)[C@@H]1CCNC1)c1ccc2cnc(NC3CCOCC3)nc2c1 (stereo in doubt) [Compound I-9]" assay_readout=pIC50 number=8.17
compound="Cn1cc([C@@H](NC(=O)c2ccc3cnc(N[C@@H]4CCOC[C@H]4F)nc3c2)c2ccc(Cl)c(F)c2)cn1 [Compound I-30]" assay_readout=pIC50 number=8.68
compound="Cn1cc([C@@H](NC(=O)c2ccc3cnc(N[C@H]4CCO[C@H](CO)C4)nc3c2)c2ccc(Cl)c(F)c2)cn1 [Compound I-42]" assay_readout=pIC50 number=8.14
compound="COc1ccc([C@H](NC(=O)c2ccc3cnc(N[C@H]4CCO[C@H](CO)C4)nc3c2)c2cnn(C)c2)cc1F [Compound I-46]" assay_readout=pIC50 number=8.38

----------
target_or_system: human ERK-2 (Mitogen Activated Kinase 1) (Homo sapiens, UniProt P28482)
Construct: N-terminal 6-His fusion protein in E. coli and corresponding to aa 8-360; 6-His (N); made in house; host or cells: E. coli
Sequence (P28482 8-360): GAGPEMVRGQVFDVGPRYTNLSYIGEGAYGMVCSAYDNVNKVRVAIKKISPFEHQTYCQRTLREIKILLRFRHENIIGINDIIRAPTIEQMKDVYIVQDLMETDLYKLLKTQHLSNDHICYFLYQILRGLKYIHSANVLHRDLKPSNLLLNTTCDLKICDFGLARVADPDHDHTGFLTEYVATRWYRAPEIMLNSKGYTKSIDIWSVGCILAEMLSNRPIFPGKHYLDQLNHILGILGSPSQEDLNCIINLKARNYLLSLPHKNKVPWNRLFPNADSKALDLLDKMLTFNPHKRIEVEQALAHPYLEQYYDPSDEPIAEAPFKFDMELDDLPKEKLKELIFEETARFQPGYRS
assay_notes: ERK-2 Enzymatic Assay
Type: biochemical
details: TABLE I; 5nM ERK-2 enzyme, 25µM ATP, S/T17 peptide substrate; single assay or mean of multiple assays
pIC50: −log10 of the molar value.
assay_readout: pIC50

molecule=Cn1cc([C@@H](NC(=O)c2ccc3cnc(N[C@H]4CCOC[C@H]4F)nc3c2)c2ccc(Cl)c(F)c2)cn1 number=8.60
molecule=Cn1cc([C@@H](NC(=O)c2ccc3cnc(NC4CCOCC4)nc3c2)c2ccc(F)c(Cl)c2)cn1 number=8.57
molecule="COc1ccc([C@@H](NC(=O)c2ccc3cnc(NC4CCOCC4)nc3c2)[C@@H]2CCCN2)cc1F (stereo in doubt)" number=8.09
molecule="O=C(N[C@@H](c1ccc(F)c(Cl)c1)[C@H]1CCNC1)c1ccc2cnc(NC3CCOCC3)nc2c1 (stereo in doubt)" number=8.19
molecule=O=C(N[C@@H](c1ccc(C(F)(F)F)c(F)c1)[C@@H]1CCCN1)c1ccc2cnc(NC3CCOCC3)nc2c1 number=8.68
molecule=Cn1cc([C@@H](NC(=O)c2cc(F)c3cnc(NC4CCOCC4)nc3c2)c2cccc(F)c2)cn1 number=8.89
molecule=COc1ccc([C@H](NC(=O)c2cc(F)c3cnc(NC4CCOCC4)nc3c2)c2cnn(C)n2)cc1F number=8.55
